Biological target: T1, Human CD98, endogenous on HCC38, Molt-4 and Jurkat human cancer cells (human)
T1 chain: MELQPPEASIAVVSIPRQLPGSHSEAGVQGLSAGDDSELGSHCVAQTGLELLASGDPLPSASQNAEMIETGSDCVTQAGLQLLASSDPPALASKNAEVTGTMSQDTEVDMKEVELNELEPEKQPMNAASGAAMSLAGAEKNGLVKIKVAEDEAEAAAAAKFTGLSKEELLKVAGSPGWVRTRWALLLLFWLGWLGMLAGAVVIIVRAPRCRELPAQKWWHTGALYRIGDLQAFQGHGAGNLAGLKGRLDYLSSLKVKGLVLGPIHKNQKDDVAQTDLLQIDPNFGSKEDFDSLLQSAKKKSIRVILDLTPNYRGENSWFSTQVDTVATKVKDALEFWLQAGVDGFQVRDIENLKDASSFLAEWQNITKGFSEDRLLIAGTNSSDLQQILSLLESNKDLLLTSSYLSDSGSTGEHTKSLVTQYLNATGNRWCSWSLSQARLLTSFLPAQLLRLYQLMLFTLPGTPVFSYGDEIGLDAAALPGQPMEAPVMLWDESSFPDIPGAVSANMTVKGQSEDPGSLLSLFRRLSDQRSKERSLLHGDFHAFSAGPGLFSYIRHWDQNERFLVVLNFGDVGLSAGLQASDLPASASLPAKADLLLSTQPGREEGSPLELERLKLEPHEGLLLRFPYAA
Experiment: cell-based or functional assay
valueKind: ADC potency, IC50 (nM), HCC38 growth inhibition
Write the number in nM without appending the unit.

binder: Ab14-CZ (Ab14 conjugated to Bcl-xL inhibitor synthon CZ) (antibody, V domains shown) VH: EVKLQQSGDELVRPGASVKISCKASGYTFTSYSMHWVKERPGQGLEWIGAIFPIIGTTEYNQKFKGKATLTADKSSNTANMELSRLTSEDSAVYYCARVYLSYFDYWGQGVMVTVSS VL: DIQMTQSPSFLSASVGDRVTINCKASQNINKYLDWYQRKHGEAPKLLIYNTNNLQTGIPSRFSGSGSGTDYTLTISSLQPEDVATYFCLQHSSRYTFGAGTKLELK
measValue: 0.798

binder: Ab5-CZ (Ab5 conjugated to Bcl-xL inhibitor synthon CZ) (antibody, V domains shown) VH: EVKLVESGGGLVQPGGSLRLSCATSGFTFTDYYMTWVRQPPGKALEWLGFIRNKANGYTTEYSASVKGRFTISRDNSLSILYLQMNTLRAEDSATYYCARASYVNSEGWFAYWGQGTLVTVSA VL: DIVMSQSPSSLAVSVGEKVTMSCKSSQSLLYSSNQKNYLAWYQQKLGQSPKLLIYWASTRESGVPDRFTGSGSGTDFTLTISSVKAEDLAVYYCQHYYSYPRTFGGGTKLEIK
measValue: 0.728

// sample Ab9-CZ (Ab9 conjugated to Bcl-xL inhibitor synthon CZ) (antibody, V domains shown) VH: QVQLKESGPGLVQPSQTLSLTCAVSGFSLSNYGVIWVRQPPGKGLEWMAVIWTNGNTNYNSTLKSRLSISRDTSKSQVYLKMNSLQTEDTATYYCARHYYDGTYYYGYFDYWGQGVMVTVSS VL: DIVMTQTPSSQAVSAGEKVTMSCKSSQSLLYTENKKNYLAWYQQKPGQSPKLLIYWASTRESGVPDRFMGSGSGTDFTLTISSVQAEDLAVYYCQQYYYFPYMFGAGTKLELK , its ADC potency, IC50 (nM), HCC38 growth inhibition was 1.09

// sample Ab7-CZ (Ab7 conjugated to Bcl-xL inhibitor synthon CZ) (antibody, V domains shown) VH: QVQLKESGPGLVQPSQTLSLTCTVSGFSLSTYGVIWVRQPPGKGLEWMGVIWANGNTNYNSTLKSRLSISRDTSKSQVYLKMNSLQTEDTATYYCARHYYDGTYYYGYFDYWGQGVMVTVSS VL: DIVMTQTPSSQAVSAGEKVTMNCKSSQSLLYSENKKNYLAWYQQKPGQSPKLLIYWASTRESGVPDRFIGSGSGTDFTLTISSVQAEDLAVYYCQQYYYFPYTFGPGTKLELK , its ADC potency, IC50 (nM), HCC38 growth inhibition was 1.15
